The measured values listed here are drawn from PubChem BioAssay (NCI).

# Test system: OVCAR-8 ovarian
# protocolText: NCI-60 one-dose screen, 48 h (100 = growth as untreated, 0 = no growth, -100 = all killed)
# testConditions: 10 µM unless noted
Compounds without any hit were thinned out: in the full panel of roughly 83,000, 20% have a hit.
readoutType: growth (%)
Give just the numeric value; % need not be written.

Use these answered entries as a reference point.
Report growth for `Clc1ccc(Nc2scc3[n+]2CCC3)cc1` please. 103

Now try `COc1ccc(OC)c(N(CCN2C(=O)c3ccccc3C2=O)C(=O)CCl)c1` . 65.6

Further cases:
Quick check: growth of `CC1=C(CC(=O)c2cccc([N+](=O)[O-])c2)C(=O)c2ccccc2C1=O` ? 9.43

Ok, now `O=C(Nc1ccccc1O)c1ccc(-c2ccc(Cl)cc2Cl)o1` 94.3

Queued: `O=C(Nc1ccc(Br)cc1F)c1cc(I)ccc1O` 9.66

// query: `O=C(/C=C/c1ccc(Cl)cc1)c1ccc(Nc2nc(NCCO)nc(N3CCOCC3)n2)cc1` 83.6

Entry to check: `O=c1oc2ccc(F)cc2c(=O)n1-c1ccc(F)cc1F` 23.3

* * *

# Tested on: OVCAR-5 ovarian
# protocolText: NCI-60 one-dose screen, 48 h
# testConditions: 10 µM unless noted
About 83,000 compounds went through this panel and 20% of them were active in at least one assay; those are over-represented in the sample as a whole. Activity calls are given as the source filed them. The calls were made as follows: active = growth percent below 10; inactive = the rest.
Please state which outcome applies, choosing from yes (1) = active, no (0) = inactive

# outcome recorded in this test, key = `CCCCNc1nc(NC(C)(C)C)nc(NC(C)(C)C)n1` no (0)

Continuing:
What classification did `Cc1cccc2c(=O)c3c(sc12)c(NCCCNCCO)nc1ccccc13` end up with in this test? no (0)

* * *

# Test system: HS 578T breast
# protocolText: NCI-60 one-dose screen, 48 h (100 = growth as untreated, 0 = no growth, -100 = all killed)
# testConditions: 10 µM unless noted
The panel holds about 83,000 compounds, 20% with a hit somewhere; the sample as a whole holds those more often.
readoutType: growth (%)
// return numeric value only (unit: %, not printed)

Worked examples, 5 compounds total:
What measured growth goes with `Nc1ncnc(N)c1NC(=O)c1ccc(OCc2ccccc2)cc1` ? 103

Next entry: `Cc1cc(Br)c(N)c(Br)c1` 109

Try this compound too: `CCOC(=O)C1=C(C)c2ccc(OC)c(OC)c2C1` 120

`CCOC(=O)c1c(Cl)c2c(n1Cc1ccccc1)-c1oncc1CCC2` , same question. 69.7

Now the same for `Cc1ccc2cc3c(N)c4c(C)ccc(C)c4nc3nc2c1` 70

More entries:
What measured growth goes with COc1ccc(-c2nsc3c2NC(=O)CC3c2cccc(OC)c2)cc1 (centres undefined) ? 28.5

Another compound to look at: `COc1ccc(Cn2c(Br)c3c(c2Br)-c2nc(NC(=O)c4ccc(OC)cc4)sc2CC3)cc1` 58.1

Would you kindly repeat that for `O=C(/C=C/c1ccc(Cl)cc1)c1ccc(Nc2nc(NCCO)nc(Nc3ccc(Cl)cc3)n2)cc1` ? 77.2

Continue with CCOC(=O)C1=C(C)N=c2s/c(=C\c3cc(Cl)ccc3O)c(=O)n2C1c1ccc(OC)cc1 (centres undefined) 117

Follow-up entry: `O=C(CN1C(=O)/C(=C\c2ccc(Cl)cc2)SC1=S)Nc1ncc(Cc2ccc(Cl)cc2)s1` 98.9

Here is the next compound: `COc1cc2nc(NC3CCC3)nc(NC3CCN(C(C)C)CC3)c2cc1OC` 66.2

Try this compound too: Nc1ccn(C2O[C@H](CO)[C@@H](O)[C@H]2O)c(=O)n1 (some centres undefined) 106

Would you kindly repeat that for `Cc1ccc2cccc(Oc3ccc(Nc4ncnc5onc(-c6ccccc6)c45)cc3)c2n1` ? 89.4

Same lookup for COc1nc2c(c(=O)n1C)N=C1c3ccccc3C(=O)C1C(c1ccccc1)N2 (centres undefined) , please. 105

Next compound: `O=c1oc2ccc(Br)cc2c(=O)n1-c1ccc(I)cc1F` 0.536

Now give it for `CC(=O)c1ccc(Nc2nc(NCCO)nc(Nc3ccc(Cl)cc3)n2)cc1` too. 87.2

Same for `Cc1nc2ccccc2c(/C=C/c2ccc(F)cc2)c1C(N)=O` 106

Queued: `COc1cc(/C=C2\CCC/C(=C\c3cc(CN4CCCCC4)c(O)c(OC)c3)C2=O)cc(CN2CCCCC2)c1O` 81.4

* * *

# Test system: 786-0 renal
# protocolText: NCI-60 one-dose screen, 48 h (100 = growth as untreated, 0 = no growth, -100 = all killed)
# testConditions: 10 µM unless noted
The panel holds about 83,000 compounds, 20% with a hit somewhere; the sample as a whole holds those more often.
Classification field: enter True for growth values not below 50%, False for values below it.

Previously resolved entries follow.
Could you verify whether the entry `COc1ccc(-c2nc(-c3ccccc3)c(-c3ccccc3)[nH]2)cc1OC1CCCCC1` shows growth of no less than 50%? True

`O=c1cc(-c2ccccc2)oc2cc(OCc3cn(Cc4ccc(F)cc4)nn3)cc(OCc3cn(Cc4ccc(F)cc4)nn3)c12` , same question. False

Query `COc1cccc(-c2nn(C)c3sc(C(=O)NCCN4CCN(c5ccccc5F)CC4)cc23)c1` next True

Also COc1cccc(C(=O)NC(c2ccc(C)cc2)c2cc(Cl)c3cccnc3c2O)c1 (stereo not given) ? False

Param item: `NC1(N2SC(S)=C3CCCC=C32)CCCCC1` True

Another molecule to look at: `O=C(CCc1nnc2sc(Cc3ccccc3Cl)nn12)c1nc2ncccc2[nH]1` True

Please answer likewise for CSc1nc2c(c(=O)n1C)N=C1c3ccccc3C(=O)C1C(c1ccccc1)N2 (stereo not given) True

Subsequent entry: `COc1cc2cc3c(=O)n4c(cc5cc(OC)ncc54)c(=O)n3c2cn1` True

// next record `FC(F)(F)c1cccc(CNC2CCN(CCc3ccccc3)CC2)c1` True

# iterate: `CCN(CCO)CCNc1ccc(C)c2sc3cc(Cl)ccc3c(=O)c12` False

---
Given the entry `CCCCN1CCN(c2ccc3nc(-c4ccc5nc(-c6ccc(OCC)cc6)[nH]c5c4)[nH]c3c2)CC1` , answer whether its growth meets or surpasses 50%. True

Follow-up item: `COc1cccc2c(=O)c3c(sc12)c(NCCCNCCO)nc1ccccc13` True

Consider next the molecule `Clc1ncccc1Nc1ccc2nnc(-c3ccncc3)n2n1` in the same way. True

Also `COc1ccc(N)c(-c2cc3c(c4c2[nH]c2ccc(OC)cc24)CCCC3)c1` ? True

What would you report for `O=C(NC1CCN(Cc2ccccc2)CC1)c1cc(C(=O)NC2CCN(Cc3ccccc3)CC2)cc(C(=O)NC2CCN(Cc3ccccc3)CC2)c1` ? True

Input `O=C(Nc1ccccc1O)c1ccc(-c2ccc(Cl)cc2Cl)o1` True

// same read-out, input: `CCC(C)(C)C(=O)O[C@H]1C[C@@H](C)C=C2C=C[C@H](C)[C@H](CC[C@@H]3CC=CC(=O)O3)[C@H]21` True

Then this molecule: `CC1=C(C(=O)OCC2CCN(C(=O)OC(C)(C)C)CC2)[C@H](c2cccc(Br)c2)C2=C(CC(C)(C)CC2=O)N1` False

Okay, and `Brc1ccc(Nc2nc3ccccc3nc2Nc2ccc(Br)cc2)cc1` ? False

* * *

# Test system: SK-MEL-5 melanoma
# protocolText: NCI-60 one-dose screen, 48 h
# testConditions: 10 µM unless noted
About 83,000 compounds went through this panel and 20% of them were active in at least one assay; those are over-represented in the sample as a whole. Activity calls are given as the source filed them. The calls were made as follows: active = growth percent below 10; inactive = the rest.
A correct response names exactly one class from label 1 for active, label 0 for inactive

Answered examples (10):
Status in this test for `Cn1nc(C(C)(C)C)cc1NC(=O)Cc1ccc(/C=C2\C(=O)Nc3ccccc32)cc1` ? label 1

Now this one: `CNCCNc1nc2ccccc2c2c(=O)c3cc(F)ccc3sc12` label 0

Try the compound `CCN1CCN(C(=S)SCC(=O)Nc2nc3ccc(C)cc3s2)CC1` label 0

What would you report for `CN(C)CCNc1cc(-c2ccccc2)nc2ccccc12` ? label 1

Next: `Cc1nc(Nc2ccccn2)sc1C(=O)/C=C/c1ccc(Cl)cc1` label 1

Then what about the compound `Oc1c(CN2CCN(c3ccccc3F)CC2)cc(Br)c2cccnc12` ? label 1

Entry to check: `Cc1cc(Br)c(N)c(Br)c1` label 0

Repeat with `O=S(=O)(c1ccccc1)n1cc2c(c1-c1ccccc1)CCc1sc(Nc3ccccc3)nc1-2` label 0

Thanks! And `COc1ccc(/C=C2\N=C(c3ccccc3)N(c3ccc(-c4nc5ccc(C)cc5s4)cc3)C2=O)cc1` ? label 0

Another compound: `Brc1ccc(Oc2ccc(Nc3ncnc4onc(-c5ccccc5)c34)cc2)cc1` label 0

More entries:
Would you mind telling me which call this test gave `C=C[C@@H]1CCC/C=C/[C@@H]2C[C@H](O)C[C@H]2[C@H](O)/C=C/C(=O)O1` ? label 1

What would you report for `CCC(C)(C)C(=O)O[C@H]1C[C@@H](C)C=C2C=C[C@H](C)[C@H](CC[C@@H]3CC=CC(=O)O3)[C@H]21` ? label 0
